Taken from patent US10647690B2.

Target: Cathepsin K (Homo sapiens, UniProt P43235)
Construct: purchased Biovision K150-100
Sequence (P43235 115-329): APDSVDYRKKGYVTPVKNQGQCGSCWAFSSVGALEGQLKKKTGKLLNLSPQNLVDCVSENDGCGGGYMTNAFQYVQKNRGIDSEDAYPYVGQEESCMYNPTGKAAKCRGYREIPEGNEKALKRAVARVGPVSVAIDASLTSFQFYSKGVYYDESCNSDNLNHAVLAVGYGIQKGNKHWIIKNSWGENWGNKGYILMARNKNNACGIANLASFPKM
Assay: Preliminary screening of Cathepsin K (Cathepsin K Inhibitor Screening Kit K150-100, Biovision)
Assay type: biochemical
Conditions: 10 μM compound; replicate 1; relative inhibition rate vs 10 μM FF-FMK control; read-out: Inhibition % (10 μM) replicate 1
EXPERIMENTAL_ENDPOINT: inhibition at 10 µM (%)

- CCOC(=O)[C@H]1O[C@@H]1C(=O)N[C@@H](CCSC)C(=O)N1CCSCC1: 61.4
- CCOC(=O)[C@H]1O[C@@H]1C(=O)N[C@@H](CCSC)C(=O)NCC(C)(C)C: 29.6

A = CCOC(=O)[C@H]1O[C@@H]1C(=O)N[C@@H](CCSC)C(=O)N1CCCC1
B = CCCCCNC(=O)[C@H](CCSC)NC(=O)[C@H]1O[C@@H]1C(=O)OCC
Would you kindly point out which of A and B has the smaller inhibition at 10 µM figure? Kindly give the label for the entry you pick.
A
(A: 32%, B: 59.5%)
